Tested System: MsEcR (GAL4-EcR DEF with VP16-RXR-USP chimera) (Manduca sexta)
Sequence (P49883 whole entry, change not shown, the tested form may be a part): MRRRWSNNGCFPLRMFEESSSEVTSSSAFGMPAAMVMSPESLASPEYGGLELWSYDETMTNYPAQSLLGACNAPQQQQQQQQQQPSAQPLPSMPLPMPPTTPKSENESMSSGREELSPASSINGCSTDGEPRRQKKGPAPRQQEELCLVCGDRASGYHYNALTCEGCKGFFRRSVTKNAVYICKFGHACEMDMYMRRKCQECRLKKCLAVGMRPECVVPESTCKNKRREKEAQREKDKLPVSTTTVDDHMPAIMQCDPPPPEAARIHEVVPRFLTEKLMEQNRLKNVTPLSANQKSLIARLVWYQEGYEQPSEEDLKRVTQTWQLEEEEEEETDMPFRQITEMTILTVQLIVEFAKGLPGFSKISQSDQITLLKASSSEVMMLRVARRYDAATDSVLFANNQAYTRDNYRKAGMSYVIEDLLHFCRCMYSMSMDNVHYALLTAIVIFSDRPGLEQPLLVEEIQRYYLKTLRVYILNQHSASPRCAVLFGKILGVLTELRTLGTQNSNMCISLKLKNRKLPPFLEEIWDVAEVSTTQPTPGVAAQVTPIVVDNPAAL
Sequence (P28702 whole entry partner, the tested form may be a part): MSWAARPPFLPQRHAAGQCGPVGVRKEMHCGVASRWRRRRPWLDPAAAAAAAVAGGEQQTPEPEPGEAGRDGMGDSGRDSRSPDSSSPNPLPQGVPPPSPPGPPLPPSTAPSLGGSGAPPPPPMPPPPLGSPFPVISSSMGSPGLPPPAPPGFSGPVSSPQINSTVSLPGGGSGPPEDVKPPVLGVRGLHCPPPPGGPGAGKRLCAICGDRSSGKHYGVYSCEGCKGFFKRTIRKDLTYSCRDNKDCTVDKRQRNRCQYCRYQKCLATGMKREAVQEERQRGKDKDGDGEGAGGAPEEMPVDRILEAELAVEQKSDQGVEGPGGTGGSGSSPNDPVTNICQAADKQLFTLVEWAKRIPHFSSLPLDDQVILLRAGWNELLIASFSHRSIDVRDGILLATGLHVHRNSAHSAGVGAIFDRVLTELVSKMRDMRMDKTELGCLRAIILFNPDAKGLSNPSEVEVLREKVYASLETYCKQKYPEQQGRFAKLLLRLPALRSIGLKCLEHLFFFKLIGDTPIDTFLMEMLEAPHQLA
Procedure Text: Two-hybrid gene switch assay, luciferase reporter, MsEcR, mouse NIH3T3 cells
Study Conditions: EC50, FIG. 13A/13B, GAL4-EcR(DEF) with VP16-RXR-USP chimera
The entries below are paired with their reported EC50.

Compound	EC50
CC(C)=CC[C@@H](O)[C@](C)(O)[C@H]1CC[C@@]2(O)C3=CC(=O)[C@@H]4C[C@@H](O)[C@@H](O)C[C@]4(C)[C@H]3CC[C@]12C	0.672 µM
CC(=O)OCC(=O)O[C@H](CCC(C)(C)O)[C@](C)(O)[C@H]1CC[C@@]2(O)C3=CC(=O)[C@@H]4C[C@@H](O)[C@@H](O)C[C@]4(C)[C@H]3CC[C@]12C [20-hydroxyecdysone 22-acetoxyacetate]	~10 µM
CC(C)(O)CCC(O)C(C)(O)C1CCC2(O)C3=CC(=O)C4CC(O)CCC4(C)C3CCC12C (stereo not drawn) [Compound 2-deoxy-20-hydroxyecdysone]	~10 µM

---

Tested System: wild-type Aedes aegypti EcR (AaEcR-DEF) (Aedes aegypti, UniProt P49880)
Sequence (P49880 405-776 limits assumed): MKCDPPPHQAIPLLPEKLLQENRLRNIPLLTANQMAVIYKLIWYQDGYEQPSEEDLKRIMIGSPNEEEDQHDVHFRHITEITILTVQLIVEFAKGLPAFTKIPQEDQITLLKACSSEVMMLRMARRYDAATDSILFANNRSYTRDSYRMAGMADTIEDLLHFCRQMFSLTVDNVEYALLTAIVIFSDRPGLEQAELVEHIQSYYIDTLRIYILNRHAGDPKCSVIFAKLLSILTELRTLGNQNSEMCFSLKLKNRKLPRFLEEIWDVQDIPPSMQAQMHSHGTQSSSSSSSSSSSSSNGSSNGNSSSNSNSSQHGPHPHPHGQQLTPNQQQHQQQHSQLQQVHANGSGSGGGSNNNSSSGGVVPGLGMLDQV
Procedure Text: Two-hybrid gene switch assay, AaEcR-DEF in NIH3T3 cells
Study Conditions: EC50, AaEcR gene switch, NIH3T3, Example One
pEC50: −log10 of the molar value.
pEC50 reference

Compound	pEC50
CC(C)CC[C@@H](O)[C@](C)(O)[C@H]1CC[C@@]2(O)C3=CC(=O)[C@@H]4C[C@@H](O)[C@@H](O)C[C@]4(C)[C@H]3CC[C@]12C [PoA, ponasterone A]	8.96
CO[C@H](CCC(C)C)[C@](C)(O)[C@H]1CC[C@@]2(O)C3=CC(=O)[C@@H]4C[C@@H](O)[C@@H](O)C[C@]4(C)[C@H]3CC[C@]12C [compound 18, ponasterone A, 22-methyl ether]	9.42

---

Listed here: items and their measured EC50.
Tested System: BaEcR (GAL4-EcR DEF with VP16-RXR-USP chimera) (Bemisia tabaci, UniProt A0A6M3RDR8)
Sequence (A0A6M3RDR8 115-530, change not shown, one chain of several): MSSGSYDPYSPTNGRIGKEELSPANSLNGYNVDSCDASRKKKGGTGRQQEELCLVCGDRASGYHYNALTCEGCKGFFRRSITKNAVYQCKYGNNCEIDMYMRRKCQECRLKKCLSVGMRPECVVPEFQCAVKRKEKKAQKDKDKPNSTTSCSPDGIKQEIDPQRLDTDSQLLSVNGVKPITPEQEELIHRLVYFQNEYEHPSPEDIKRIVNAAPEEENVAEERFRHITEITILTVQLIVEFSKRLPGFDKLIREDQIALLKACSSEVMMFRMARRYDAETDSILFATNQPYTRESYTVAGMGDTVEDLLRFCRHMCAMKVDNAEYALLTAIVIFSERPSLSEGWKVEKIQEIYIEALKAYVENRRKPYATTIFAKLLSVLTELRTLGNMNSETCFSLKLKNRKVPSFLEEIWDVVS
Procedure Text: Two-hybrid gene switch assay, luciferase reporter, BaEcR, mouse NIH3T3 cells
Study Conditions: EC50, FIG. 14A/14B, GAL4-EcR(DEF) with VP16-RXR-USP chimera

Compound	EC50
CC(C)(O)CC[C@@H](O)[C@](C)(O)[C@H]1CC[C@@]2(O)C3=CC(=O)[C@@H]4C[C@@H](O)[C@@H](O)C[C@]4(C)C3=CC[C@]12C [Compound 25-hydroxydacryhainansterone]	~15 µM
CC(=O)OCC(=O)O[C@H](CCC(C)(C)O)[C@](C)(O)[C@H]1CC[C@@]2(O)C3=CC(=O)[C@@H]4C[C@@H](O)[C@@H](O)C[C@]4(C)[C@H]3CC[C@]12C [20-hydroxyecdysone 22-acetoxyacetate]	~12 µM
CC(CC(O)C(C)(O)C1CCC2(O)C3=CC(=O)C4CC(O)C(O)CC4(C)C3CCC12C)C(C)(C)O (stereo not drawn)	~15 µM

---

Tested System: BaEcR (GAL4-EcR DEF with VP16-RXR-USP chimera) (Bemisia tabaci)
Procedure Text: Two-hybrid gene switch assay, luciferase reporter, BaEcR, mouse NIH3T3 cells
Study Conditions: EC50, FIG. 14A/14B, GAL4-EcR(DEF) with VP16-RXR-USP chimera
Each entry below carries its reported EC50.

Compound	EC50
C=C(C)CC[C@@H](O)[C@](C)(O)[C@H]1CC[C@@]2(O)C3=CC(=O)[C@@H]4C[C@@H](O)[C@@H](O)C[C@]4(C)[C@H]3CC[C@]12C	0.382 µM
CC(C)(O)CCC(O)C(C)(O)C1CCC2(O)C3=CC(=O)C4CC(O)CCC4(C)C3CCC12C (stereo not drawn) [Compound 2-deoxy-20-hydroxyecdysone]	~15 µM
CC(C)(O)CC[C@@H](O)[C@](C)(O)[C@H]1CC[C@@]2(O)C3=C[C@@H](O)[C@@H]4C[C@@H](O)[C@@H](O)C[C@]4(C)[C@H]3CC[C@]12C [Compound 6b-hydroxy-20-hydroxyecdysone]	~20 µM
CC(=O)O[C@H](CCC(C)(C)O)[C@](C)(O)[C@H]1CC[C@@]2(O)C3=CC(=O)[C@@H]4C[C@@H](O)[C@@H](O)C[C@]4(C)[C@H]3CC[C@]12C [Compound 20-hydroxyecdysone-22-acetate]	~2 µM
CC(C)(O)CC[C@@H](OC(=O)c1ccc[nH]1)[C@](C)(O)[C@H]1CC[C@@]2(O)C3=CC(=O)[C@@H]4C[C@@H](O)[C@@H](O)C[C@]4(C)[C@H]3CC[C@]12C	~15 µM
C[C@@H](CO)CC[C@@H](O)[C@](C)(O)[C@H]1CC[C@@]2(O)C3=CC(=O)[C@@H]4C[C@@H](O)[C@@H](O)C[C@]4(C)[C@H]3CC[C@]12C [(25R)-inokosterone]	~10 µM
CCCCCC(=O)OC1CC2(C)C(C(C)(O)C(O)CCC(C)(C)O)CCC2(O)C2=CC(=O)C3CC(O)C(O)CC3(C)C21 (stereo not drawn) [turkesterone-11 a -hexanoate]	> 33 µM
C[C@H](CO)CC[C@@H](O)[C@](C)(O)[C@H]1CC[C@@]2(O)C3=CC(=O)[C@@H]4C[C@@H](O)[C@@H](O)C[C@]4(C)[C@H]3CC[C@]12C [(25S)-inokosterone]	~10 µM
CCCCCCCCCC(=O)OC1CC2(C)C(C(C)(O)C(O)CCC(C)(C)O)CCC2(O)C2=CC(=O)C3CC(O)C(O)CC3(C)C21 (stereo not drawn) [turkesterone-11a-decanoate]	> 33 µM
CC(C)(O)CC[C@@H](O)[C@](C)(O)[C@H]1CC[C@@]2(O)C3=CC(=O)[C@@H]4C[C@H]5OC(C)(C)O[C@H]5C[C@]4(C)[C@H]3CC[C@]12C [20-hydroxyecdysone-2,3-acetonide]	~15 µM
C[C@@H]1C(=O)O[C@H](C)[C@H]1C[C@@H](O)[C@](C)(O)[C@H]1CC[C@@]2(O)C3=CC(=O)[C@@H]4C[C@@H](O)[C@@H](O)C[C@]4(C)[C@H]3CC[C@]12C	~10 µM
CC(C)(O)CC[C@@H](O)[C@](C)(O)[C@H]1CC[C@@]2(O)C3=CC(=O)[C@@H]4C[C@@H](O)[C@@H](O)C[C@]4(C)[C@H]3[C@H](O)C[C@]12C	~20 µM
CC(C(O)CCC(C)(C)O)C1CCC2(O)C3=CC(=O)C4CC(O)CCC4(C)C3CCC12C (stereo not drawn)	> 33 µM
CC(C)=CC[C@@H](O)[C@](C)(O)[C@H]1CC[C@@]2(O)C3=CC(=O)[C@@H]4C[C@@H](O)[C@@H](O)C[C@]4(C)[C@H]3CC[C@]12C	0.658 µM
CC(C)CC[C@@H](O)[C@](C)(O)[C@H]1CC[C@@]2(O)C3=CC(=O)[C@]4(O)C[C@@H](O)[C@@H](O)C[C@]4(C)[C@H]3[C@H](O)C[C@]12C [Mur A, muristerone A, reference compound]	0.829 µM
CC(C)CC[C@@H](O)[C@](C)(O)[C@H]1CC[C@@]2(O)C3=CC(=O)[C@@H]4C[C@@H](O)[C@@H](O)C[C@]4(C)[C@H]3[C@H](O)C[C@]12C	2.06 µM
CCC(=O)OC1CC2(C)C(C(C)(O)C(O)CCC(C)(C)O)CCC2(O)C2=CC(=O)C3CC(O)C(O)CC3(C)C21 (stereo not drawn) [turkesterone-11 a -propionate]	> 33 µM
CC(C)(O)CCCC(C)(O)C1CCC2(O)C3=CC(=O)C4CC(O)C(O)CC4(C)C3CCC12C (stereo not drawn)	~10 µM
CC(C)CC[C@@H](O)[C@](C)(O)[C@H]1CC[C@@]2(O)C3=CC(=O)[C@@H]4C[C@@H](O)[C@@H](O)C[C@]4(C)[C@H]3CC[C@]12C [PoA, ponasterone A, reference compound]	0.031 µM
CC(C)(O)CC[C@@H](O)[C@](C)(O)[C@H]1CC[C@@]2(O)C3=CC(=O)[C@@H]4C[C@H](O)[C@@H](O)C[C@]4(C)[C@H]3CC[C@]12C	~20 µM
CC(C)(O)CC[C@@H](O)[C@](C)(O)[C@H]1CC[C@@]2(O)C3=C[C@H](O)[C@@H]4C[C@@H](O)[C@@H](O)C[C@]4(C)[C@H]3CC[C@]12C [Compound 6a-hydroxy-20-hydroxyecdysone]	> 33 µM
